Reference source: ChEMBL document CHEMBL4387705

The following compounds are listed with their measured Ratio IC50 values.
# assay: Selectivity ratio of IC50 for rat kidney ALR1 IC50 to IC50 for human recombinant ALR2

compound: CC(C)c1ccc(S(=O)(=O)N2C(=O)NC3(CCCc4ccccc43)C2=O)cc1 (configuration not stated)
Ratio IC50: 4.05
--
compound: CC(C)c1ccc(S(=O)(=O)N2C(=O)NC(=O)C23CCCc2ccccc23)cc1 (configuration not stated)
Ratio IC50: 73.7
--
compound: CC(=O)c1ccc(S(=O)(=O)N2C(=O)NC(=O)C23CCCc2ccccc23)cc1 (configuration not stated)
Ratio IC50: 53.7
--
compound: COc1ccc(S(=O)(=O)N2C(=O)NC(=O)C23CCCc2ccccc23)cc1 (configuration not stated)
Ratio IC50: 1.88
--
compound: O=C1NC2(CCCc3ccccc32)C(=O)N1S(=O)(=O)c1ccc(Br)cc1 (configuration not stated)
Ratio IC50: 4.07

// recorded Ratio IC50 for COc1ccc(S(=O)(=O)N2C(=O)NC3(CCCc4ccccc43)C2=O)cc1 (configuration not stated) : 2.2

What the record says about O=C1NC(=O)C2(CCCc3ccccc32)N1S(=O)(=O)c1ccc(Br)cc1 (configuration not stated) : Ratio IC50 is 7.23

----------
Reported inhibition is given for each of the following compounds.
# assay: Antioxidant activity assessed as DPPH radical scavenging activity at 10 uM incubated for 30 mins under dark condition by spectrophotometry
# Assay type: functional
Return type: number; implicit unit %.

Worked set:
compound: O=C1NC(=O)C2(CCCc3ccccc32)N1S(=O)(=O)c1ccc([N+](=O)[O-])cc1 (stereo not given)
inhibition, %: 70.5
--
compound: CC(=O)c1ccc(S(=O)(=O)N2C(=O)NC(=O)C23CCCc2ccccc23)cc1 (stereo not given)
inhibition, %: 25.2
--
compound: Cc1ccc(S(=O)(=O)N2C(=O)NC(=O)C23CCCc2ccccc23)cc1 (stereo not given)
inhibition, %: 33.3
--
compound: CC(=O)c1ccc(S(=O)(=O)N2C(=O)NC3(CCCc4ccccc43)C2=O)cc1 (stereo not given)
inhibition, %: 25.1

Entry O=C1NC2(CCCc3ccccc32)C(=O)N1S(=O)(=O)c1ccc([N+](=O)[O-])cc1 (stereo not given) , inhibition reported as 44.8

----------
# subject.of.test: Aldo-keto reductase family 1 member B1 (Rattus norvegicus)
# assay: Inhibition of ALR2 in rat sciatic nerve assessed as reduction in sorbitol accumulation incubated for 3 hrs in presence of 28 mM glucose by gas chromatographic analysis
parameter.measured: inhibition

Please review the entries below; each comes with its answer.
compound: CC(=O)c1ccc(S(=O)(=O)N2C(=O)NC3(CCCc4ccccc43)C2=O)cc1 (stereo not given)
inhibition: Dose-dependent effect
//
compound: O=C1NC2(CCCc3ccccc32)C(=O)N1S(=O)(=O)c1ccc([N+](=O)[O-])cc1 (stereo not given)
inhibition: Dose-dependent effect
//
compound: Cc1ccc(S(=O)(=O)N2C(=O)NC(=O)C23CCCc2ccccc23)cc1 (stereo not given)
inhibition: Dose-dependent effect
//
compound: O=C1NC(=O)C2(CCCc3ccccc32)N1S(=O)(=O)c1ccc(Br)cc1 (stereo not given)
inhibition: Dose-dependent effect
//
compound: CC(=O)c1ccc(S(=O)(=O)N2C(=O)NC(=O)C23CCCc2ccccc23)cc1 (stereo not given)
inhibition: Dose-dependent effect

# lookup: O=C1NC2(CCCc3ccccc32)C(=O)N1S(=O)(=O)c1ccc(Br)cc1 (stereo not given) on Aldo-keto reductase family 1 member B1 (Rattus norvegicus), inhibition = Dose-dependent effect

Form field, inhibition with Aldo-keto reductase family 1 member B1 (Rattus norvegicus), item COc1ccc(S(=O)(=O)N2C(=O)NC3(CCCc4ccccc43)C2=O)cc1 (stereo not given) : Dose-dependent effect

The recorded inhibition with Aldo-keto reductase family 1 member B1 (Rattus norvegicus) for Cc1ccc(S(=O)(=O)N2C(=O)NC3(CCCc4ccccc43)C2=O)cc1 (stereo not given) was Dose-dependent effect

// compound COc1ccc(S(=O)(=O)N2C(=O)NC(=O)C23CCCc2ccccc23)cc1 (stereo not given) , assay Aldo-keto reductase family 1 member B1 (Rattus norvegicus), inhibition value: Dose-dependent effect

The value of inhibition recorded for O=C1NC(=O)C2(CCCc3ccccc32)N1S(=O)(=O)c1ccc(F)cc1 (stereo not given) when tested on Aldo-keto reductase family 1 member B1 (Rattus norvegicus) reads Dose-dependent effect
